Assay: in vivo
Set-up: species or system Swiss albino mice
Conditions: Swiss albino, mouse, iv, 10 pmol peptide, total radioactivity, %ID/g tissue, Blood
property_measured: tissue uptake at 1 h (%ID/g)

>  <compound>
CSCC[C@H](NC(=O)[C@H](Cc1c[nH]c2ccccc12)NC(=O)CNC(=O)[C@H](Cc1ccc(O)cc1)NC(=O)[C@H](C)NC(=O)[C@@H](CCC(=O)O)NC(=O)[C@@H](CCC(=O)O)NC(=O)[C@@H](CCC(=O)O)NC(=O)[C@@H](CCC(=O)O)NC(=O)[C@@H](CCC(=O)O)NC(=O)[C@@H](CCC(=O)O)NC(=O)CN1CCN(CC(=O)O)CCN(CC(=O)O)CCN(CC(=O)O)CC1)C(=O)N[C@@H](CC(=O)O)C(=O)N[C@@H](Cc1ccccc1)C(N)=O [^111In-CP04, metal not drawn]

>  <property_measured>
tissue uptake at 1 h

>  <recorded_result>
0.51

$$$$

###

Test: in vivo
Design: species or system Swiss albino mice
Settings: Swiss albino, mouse, iv, 10 pmol peptide, total radioactivity, %ID/g tissue, Femur
property_measured: tissue uptake at 1 h (%ID/g)

>  <molecule>
CSCC[C@H](NC(=O)[C@H](Cc1c[nH]c2ccccc12)NC(=O)CNC(=O)[C@H](Cc1ccc(O)cc1)NC(=O)[C@H](C)NC(=O)[C@@H](CCC(=O)O)NC(=O)[C@@H](CCC(=O)O)NC(=O)[C@@H](CCC(=O)O)NC(=O)[C@@H](CCC(=O)O)NC(=O)[C@@H](CCC(=O)O)NC(=O)[C@@H](CCC(=O)O)NC(=O)CN1CCN(CC(=O)O)CCN(CC(=O)O)CCN(CC(=O)O)CC1)C(=O)N[C@@H](CC(=O)O)C(=O)N[C@@H](Cc1ccccc1)C(N)=O [^111In-CP04, metal not drawn]

>  <property_measured>
tissue uptake at 1 h

>  <recorded_result>
2.62

$$$$

###

Assay: in vivo
Set-up: species or system Swiss albino mice
Conditions: Swiss albino, mouse, iv, 10 pmol peptide, total radioactivity, %ID/g tissue, Lung
property_measured: tissue uptake at 24 h (%ID/g)

>  <molecule>
CSCC[C@H](NC(=O)[C@H](Cc1c[nH]c2ccccc12)NC(=O)CNC(=O)[C@H](Cc1ccc(O)cc1)NC(=O)[C@H](C)NC(=O)[C@@H](CCC(=O)O)NC(=O)[C@@H](CCC(=O)O)NC(=O)[C@@H](CCC(=O)O)NC(=O)[C@@H](CCC(=O)O)NC(=O)[C@@H](CCC(=O)O)NC(=O)[C@@H](CCC(=O)O)NC(=O)CN1CCN(CC(=O)O)CCN(CC(=O)O)CCN(CC(=O)O)CC1)C(=O)N[C@@H](CC(=O)O)C(=O)N[C@@H](Cc1ccccc1)C(N)=O [^111In-CP04, metal not drawn]

>  <property_measured>
tissue uptake at 24 h

>  <recorded_result>
0.03

$$$$

###

Experiment: in vivo
Design: species or system Swiss albino mice
Conditions: Swiss albino, mouse, iv, 10 pmol peptide, total radioactivity, %ID/g tissue, Pancreas
property_measured: tissue uptake at 4 h (%ID/g)

>  <molecule>
CSCC[C@H](NC(=O)[C@H](Cc1c[nH]c2ccccc12)NC(=O)CNC(=O)[C@H](Cc1ccc(O)cc1)NC(=O)[C@H](C)NC(=O)[C@@H](CCC(=O)O)NC(=O)[C@@H](CCC(=O)O)NC(=O)[C@@H](CCC(=O)O)NC(=O)[C@@H](CCC(=O)O)NC(=O)[C@@H](CCC(=O)O)NC(=O)[C@@H](CCC(=O)O)NC(=O)CN1CCN(CC(=O)O)CCN(CC(=O)O)CCN(CC(=O)O)CC1)C(=O)N[C@@H](CC(=O)O)C(=O)N[C@@H](Cc1ccccc1)C(N)=O [^111In-CP04, metal not drawn]

>  <recorded_result>
0.1

$$$$

###

Experiment: in vivo
Design: species or system SCID mice
Details: SCID, mouse, iv, 10 pmol peptide, total radioactivity, %ID/g tissue, Stomach

>  <compound>
CSCC[C@H](NC(=O)[C@H](Cc1c[nH]c2ccccc12)NC(=O)CNC(=O)[C@H](Cc1ccc(O)cc1)NC(=O)[C@H](C)NC(=O)[C@@H](CCC(=O)O)NC(=O)[C@@H](CCC(=O)O)NC(=O)[C@@H](CCC(=O)O)NC(=O)[C@@H](CCC(=O)O)NC(=O)[C@@H](CCC(=O)O)NC(=O)[C@@H](CCC(=O)O)NC(=O)CN1CCN(CC(=O)O)CCN(CC(=O)O)CCN(CC(=O)O)CC1)C(=O)N[C@@H](CC(=O)O)C(=O)N[C@@H](Cc1ccccc1)C(N)=O [^111In-CP04, metal not drawn]

>  <tissue uptake at 4 h [%ID/g]>
2.09

$$$$

###

Assay: in vivo
Parameters: species or system Swiss albino mice
Conditions: Swiss albino, mouse, iv, 10 pmol peptide, total radioactivity, %ID/g tissue, Intestines

>  <molecule>
CSCC[C@H](NC(=O)[C@H](Cc1c[nH]c2ccccc12)NC(=O)CNC(=O)[C@H](Cc1ccc(O)cc1)NC(=O)[C@H](C)NC(=O)[C@@H](CCC(=O)O)NC(=O)[C@@H](CCC(=O)O)NC(=O)[C@@H](CCC(=O)O)NC(=O)[C@@H](CCC(=O)O)NC(=O)[C@@H](CCC(=O)O)NC(=O)[C@@H](CCC(=O)O)NC(=O)CN1CCN(CC(=O)O)CCN(CC(=O)O)CCN(CC(=O)O)CC1)C(=O)N[C@@H](CC(=O)O)C(=O)N[C@@H](Cc1ccccc1)C(N)=O [^111In-CP04, metal not drawn]

>  <tissue uptake at 4 h (%ID/g)>
1.05

$$$$

###

Assay: in vivo
Design: species or system SCID mice
Conditions: SCID, mouse, iv, 10 pmol peptide, total radioactivity, %ID/g tissue, Tumour(+) (A431-CCK2R(+))

>  <compound>
CSCC[C@H](NC(=O)[C@H](Cc1c[nH]c2ccccc12)NC(=O)CNC(=O)[C@H](Cc1ccc(O)cc1)NC(=O)[C@H](C)NC(=O)[C@@H](CCC(=O)O)NC(=O)[C@@H](CCC(=O)O)NC(=O)[C@@H](CCC(=O)O)NC(=O)[C@@H](CCC(=O)O)NC(=O)[C@@H](CCC(=O)O)NC(=O)[C@@H](CCC(=O)O)NC(=O)CN1CCN(CC(=O)O)CCN(CC(=O)O)CCN(CC(=O)O)CC1)C(=O)N[C@@H](CC(=O)O)C(=O)N[C@@H](Cc1ccccc1)C(N)=O [^111In-CP04, metal not drawn]

>  <endpoint_unit>
%ID/g

>  <tissue uptake at 4 h>
9.24

$$$$

###

Assay: in vivo
Set-up: species or system SCID mice
Settings: SCID, mouse, iv, 10 pmol peptide, total radioactivity, %ID/g tissue, Femur

>  <molecule>
CSCC[C@H](NC(=O)[C@H](Cc1c[nH]c2ccccc12)NC(=O)CNC(=O)[C@H](Cc1ccc(O)cc1)NC(=O)[C@H](C)NC(=O)[C@@H](CCC(=O)O)NC(=O)[C@@H](CCC(=O)O)NC(=O)[C@@H](CCC(=O)O)NC(=O)[C@@H](CCC(=O)O)NC(=O)[C@@H](CCC(=O)O)NC(=O)[C@@H](CCC(=O)O)NC(=O)CN1CCN(CC(=O)O)CCN(CC(=O)O)CCN(CC(=O)O)CC1)C(=O)N[C@@H](CC(=O)O)C(=O)N[C@@H](Cc1ccccc1)C(N)=O [^111In-CP04, metal not drawn]

>  <tissue uptake at 4 h>
0.3 %ID/g

$$$$

###

Experiment: in vivo
Set-up: species or system Swiss albino mice
Conditions: Swiss albino, mouse, iv, 10 pmol peptide, total radioactivity, %ID/g tissue, Femur

>  <compound>
CSCC[C@H](NC(=O)[C@H](Cc1c[nH]c2ccccc12)NC(=O)CNC(=O)[C@H](Cc1ccc(O)cc1)NC(=O)[C@H](C)NC(=O)[C@@H](CCC(=O)O)NC(=O)[C@@H](CCC(=O)O)NC(=O)[C@@H](CCC(=O)O)NC(=O)[C@@H](CCC(=O)O)NC(=O)[C@@H](CCC(=O)O)NC(=O)[C@@H](CCC(=O)O)NC(=O)CN1CCN(CC(=O)O)CCN(CC(=O)O)CCN(CC(=O)O)CC1)C(=O)N[C@@H](CC(=O)O)C(=O)N[C@@H](Cc1ccccc1)C(N)=O [^111In-CP04, metal not drawn]

>  <tissue uptake at 24 h>
0.53 %ID/g

$$$$

###

Assay: in vivo
Parameters: species or system SCID mice
Settings: SCID, mouse, iv, 10 pmol peptide, total radioactivity, %ID/g tissue, Lung

>  <compound>
CSCC[C@H](NC(=O)[C@H](Cc1c[nH]c2ccccc12)NC(=O)CNC(=O)[C@H](Cc1ccc(O)cc1)NC(=O)[C@H](C)NC(=O)[C@@H](CCC(=O)O)NC(=O)[C@@H](CCC(=O)O)NC(=O)[C@@H](CCC(=O)O)NC(=O)[C@@H](CCC(=O)O)NC(=O)[C@@H](CCC(=O)O)NC(=O)[C@@H](CCC(=O)O)NC(=O)CN1CCN(CC(=O)O)CCN(CC(=O)O)CCN(CC(=O)O)CC1)C(=O)N[C@@H](CC(=O)O)C(=O)N[C@@H](Cc1ccccc1)C(N)=O [^111In-CP04, metal not drawn]

>  <endpoint_unit>
%ID/g

>  <tissue uptake at 24 h>
0.03

$$$$
